assay: Solubilizing power: test substances added to 10 g of solubilizer until the solubility limit was reached; type: physicochemical; conditions: in comparison solubilizer C1 (PEG-40 Hydrogenated Castor Oil 100 % by weight)
Classification field: enter criterion met for Solubility values not below 0.5 g/10 g solubilizer, criterion not met for values below it.

> print(dat)
                                   molecule  qualitative.label
1    CC1CCC(C(C)C)C(O)C1 (centres unmarked)      criterion met
2  CCCCC(CC)COC(=O)C=Cc1ccc(OC)cc1 (centres unmarked) [Octyl Methoxycinnamate]  criterion not met
3  COc1ccc(/C=C/C(=O)OCCC(C)C)cc1 [Isoamyl Methoxycinnamate]      criterion met
4              COc1ccc(C(=O)c2ccccc2)c(O)c1  criterion not met

* * *

experiment: Solubilizing power: test substances added to 10 g of solubilizer until the solubility limit was reached; type: physicochemical; settings: in comparison solubilizer C2 (Cocoeth-8 100 % by weight)
Experimental endpoint: Solubility (g/10 g solubilizer)

> print(dat)
                                   compound  quantitative.readout
1  Cc1ccc(C=C2C(=O)C3(C)CCC2C3(C)C)cc1 (centres unmarked)                  0.38
2  CCCCC(CC)COC(=O)C=Cc1ccc(OC)cc1 (centres unmarked) [Octyl Methoxycinnamate]                  0.60
3  COc1ccc(/C=C/C(=O)OCCC(C)C)cc1 [Isoamyl Methoxycinnamate]                  0.70
4    CC1CCC(C(C)C)C(O)C1 (centres unmarked)                  1.05
5              COc1ccc(C(=O)c2ccccc2)c(O)c1                  0.20

* * *

assay: Solubilizing power: test substances added to 10 g of solubilizer until the solubility limit was reached; type: physicochemical; conditions: in solubilizer of Example 1 (Cocoeth-8 40, PPG1-PEG9 Lauryl Glycol Ether 30, PEG-40 Hydrogenated Castor Oil 20, Water 10 % by weight)
Here, each record is paired with measured Solubility data.
Experimental endpoint: Solubility (g/10 g solubilizer)

> print(dat)
                                   compound  experimental.endpoint     unit.of.measure  quantitative.readout
1  COc1ccc(/C=C/C(=O)OCCC(C)C)cc1 [Isoamyl Methoxycinnamate]             Solubility  g/10 g solubilizer                  1.10
2  CCCCC(CC)COC(=O)C=Cc1ccc(OC)cc1 (centres unmarked) [Octyl Methoxycinnamate]             Solubility  g/10 g solubilizer                  1.60
3  COc1ccc(C(=O)c2ccccc2)c(O)c1 [Benzophenone-3]             Solubility  g/10 g solubilizer                  0.44
4  Cc1ccc(C=C2C(=O)C3(C)CCC2C3(C)C)cc1 (centres unmarked) [4-Methylbenzylidene Camphor]             Solubility  g/10 g solubilizer                  1.10
5  CC1CCC(C(C)C)C(O)C1 (centres unmarked) [Menthol]             Solubility  g/10 g solubilizer                  4.80
